- Target of assay: HLA-B*39:01
- Assay remarks: IEDB peptide-MHC binding, purified MHC/competitive/fluorescence; filed as Kd, often an IC50 or EC50 that approximates it; bounds were set here for any values at or beyond the usual limits of such assays
- Condition set: source organism: Giardia lamblia ATCC 50803
pKd: −log10 of the molar value.
Recorded metric: pKd

q: Dear colleague, I am looking for the recorded pKd of the following sequence: `TELPLAYER`
a: ≤ 4.70

###

- Target of assay: HLA-B*58:01
- Assay remarks: IEDB peptide-MHC binding, purified MHC/competitive/radioactivity; filed as Kd, often an IC50 or EC50 that approximates it; bounds were set here for any values at or beyond the usual limits of such assays
- Condition set: source organism: Pan troglodytes
Recorded metric: pKd
Give bare numbers, as −log10 of the molar value.

q: So what's the measured pKd for this one? `YRAVVPLVY`
a: 5.82

###

- Target of assay: HLA-A*26:01
- Assay remarks: IEDB peptide-MHC binding, purified MHC/competitive/radioactivity; filed as Kd, often an IC50 or EC50 that approximates it; bounds were set here for any values at or beyond the usual limits of such assays
- Condition set: source organism: Dengue virus 1 Brazil/97-11/1997
Recorded metric: pKd
Give bare numbers, as −log10 of the molar value.

>>> meas_value("ETQHGTVLV")
5.31

Here is the next item to consider.
q: Bench note: what pKd did `ESITLATGPL` show?
a: 5.70

###

- Target of assay: HLA-A*02:02
- Assay remarks: IEDB peptide-MHC binding, purified MHC/competitive/radioactivity; filed as Kd, often an IC50 or EC50 that approximates it; bounds were set here for any values at or beyond the usual limits of such assays
- Condition set: source organism: Lymphocytic choriomeningitis virus (strain Armstrong)
Recorded metric: Kd (nM)
Numbers only, in nM.

q: Item `LNVSYLCHL` has what recorded Kd?
a: 296

###

- Target of assay: HLA-A*01:01
- Assay remarks: IEDB peptide-MHC binding, purified MHC/competitive/radioactivity; filed as Kd, often an IC50 or EC50 that approximates it; bounds were set here for any values at or beyond the usual limits of such assays
- Condition set: source organism: Dengue virus 2 Jamaica/1409/1983
Recorded metric: log10(Kd) (log10 of the value in µM)
Record value = log10 of Kd given in µM.

>>> meas_value("SITEAELTGY")
-0.41
>>> meas_value("MSTYGWNLV")
0.93
>>> meas_value("LAEAIFKLTY")
0.18
>>> meas_value("QIDNFSLGV")
-0.18
>>> meas_value("VSKKEGGAMY")
1.30

We now examine a further sequence.
q: Given `RSLIGNEEY` , state its recorded log10(Kd).
a: 0.83

###

- Target of assay: HLA-A*11:01
- Assay remarks: IEDB peptide-MHC binding, purified MHC/direct/fluorescence; filed as Kd, often an IC50 or EC50 that approximates it; bounds were set here for any values at or beyond the usual limits of such assays
- Condition set: source organism: Influenza A virus (A/Switzerland/8808/2002(H1N1))
Recorded metric: Kd

q: Requested field: Kd. Item: `VPAQNAIST`
a: ≥ 20 µM

###

- Target of assay: HLA-A*24:03
- Assay remarks: IEDB peptide-MHC binding, purified MHC/direct/fluorescence; filed as Kd, often an IC50 or EC50 that approximates it; bounds were set here for any values at or beyond the usual limits of such assays
- Condition set: source organism: Mycobacterium tuberculosis
Recorded metric: pKd
Answers are plain numbers, as −log10 of the molar value.

q: Bench note: what pKd did `IYTLEYDGF` show?
a: 7.13
